Target: T1, Murine OPG-Fc (mouse, UniProt O08712 22-401)
T1 sequence (looked up): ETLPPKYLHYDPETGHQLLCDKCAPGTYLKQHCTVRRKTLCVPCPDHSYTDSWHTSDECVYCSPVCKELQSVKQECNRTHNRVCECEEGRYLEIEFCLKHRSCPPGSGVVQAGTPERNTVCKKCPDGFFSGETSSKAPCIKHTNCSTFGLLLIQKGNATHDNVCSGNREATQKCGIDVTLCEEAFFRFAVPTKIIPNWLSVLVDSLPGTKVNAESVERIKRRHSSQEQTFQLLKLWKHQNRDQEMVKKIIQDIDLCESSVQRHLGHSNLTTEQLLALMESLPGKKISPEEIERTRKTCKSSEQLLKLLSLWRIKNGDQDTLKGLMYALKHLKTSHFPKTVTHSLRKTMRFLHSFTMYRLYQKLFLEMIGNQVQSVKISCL
Experiment: SPR
Item-by-item account of kon
Field: numeric (M⁻¹ s⁻¹). Do not append units.

| binder | kon (M⁻¹ s⁻¹) |
| --- | --- |
| RANKL_Q236H (ligand, mouse, UniProt O35235 160-316, looked up) EAQPFAHLTINAASIPSGSHKVTLSSWYHDRGWAKISNMTLSNGKLRVNQDGFYYLYANICFRHHETSGSVPTDYLHLMVYVVKTSIKIPSSHNLMKGGSTKNWSGNSEFHFYSINVGGFFKLRAGEEISIQVSNPSLLDPDQDATYFGAFKVQDID | 1.3e+07 |

Let's switch to this binder now.
Q: For the binder RANKL_Q236D (ligand, mouse, UniProt O35235 160-316, looked up) EAQPFAHLTINAASIPSGSHKVTLSSWYHDRGWAKISNMTLSNGKLRVNQDGFYYLYANICFRHHETSGSVPTDYLDLMVYVVKTSIKIPSSHNLMKGGSTKNWSGNSEFHFYSINVGGFFKLRAGEEISIQVSNPSLLDPDQDATYFGAFKVQDID , give its measured kon value.
A: 6e+06
